Exercise: state measured HDAC2 activity raw data (signal) for each of the compounds provided.
- Measurement target: HDAC2 (Homo sapiens)
- Construct: purchased Reaction Biology Corporation (assay run by the CRO)
- Sequence (Q92769 whole entry): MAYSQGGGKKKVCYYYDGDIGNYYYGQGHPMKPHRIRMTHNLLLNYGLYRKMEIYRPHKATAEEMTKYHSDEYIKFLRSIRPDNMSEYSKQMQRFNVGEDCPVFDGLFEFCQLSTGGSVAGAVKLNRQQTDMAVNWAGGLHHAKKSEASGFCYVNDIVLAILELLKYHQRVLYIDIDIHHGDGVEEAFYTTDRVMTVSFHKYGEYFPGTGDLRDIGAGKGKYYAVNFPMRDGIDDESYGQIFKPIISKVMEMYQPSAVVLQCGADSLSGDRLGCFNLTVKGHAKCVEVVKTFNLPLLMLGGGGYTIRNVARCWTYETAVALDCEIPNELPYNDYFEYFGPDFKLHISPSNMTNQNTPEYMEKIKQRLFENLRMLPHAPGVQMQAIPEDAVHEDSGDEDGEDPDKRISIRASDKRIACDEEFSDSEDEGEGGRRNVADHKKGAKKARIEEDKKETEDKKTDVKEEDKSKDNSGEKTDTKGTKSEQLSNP
- Method: HDAC2 inhibition, full IC50 measurement (Reaction Biology; fluorogenic p53 peptide RHKK(Ac)AMC)
- Type: biochemical
- Run parameters: Conc. 5.08E-10 M, t1
Peptide text beside a SMILES is read from it.
Give bare numbers.

Compound	HDAC2 activity raw data (signal)
CCCC[C@H]1NC(=O)[C@H](Cc2ccccc2)NC(=O)[C@H](CCCCCS)NC(=O)[C@@H](CCCNC(=N)N)NC(=O)[C@H](C)NC(=O)[C@@H](CO)NC(=O)[C@@H](C)NC(=O)[C@H](CCCCN)NC1=O [des4.3.1.3, SHA-Phe-dNle-Lys-dAla-dSer-Ala-dArg] (HELM PEPTIDE1{A.[dR].[O=C([C@H](CCCCCS)N[*:1])[*:2]].F.[CCCC[C@@H](N[*:1])C(=O)[*:2]].K.[dA].[dS]}$PEPTIDE1,PEPTIDE1,1:R1-8:R2$$$V2.0)	1698338
CCCC[C@H]1NC(=O)[C@H](Cc2ccccc2)NC(=O)[C@H](CCCCCS)NC(=O)[C@@H](CCCNC(=N)N)NC(=O)[C@H](CC(=O)O)NC(=O)[C@@H](CO)NC(=O)[C@@H](C)NC(=O)[C@H](CCCCN)NC1=O [des4.3.1, SHA-Phe-dNle-Lys-dAla-dSer-Asp-dArg] (HELM PEPTIDE1{D.[dR].[O=C([C@H](CCCCCS)N[*:1])[*:2]].F.[CCCC[C@@H](N[*:1])C(=O)[*:2]].K.[dA].[dS]}$PEPTIDE1,PEPTIDE1,1:R1-8:R2$$$V2.0)	1185807

Note: attention shifts to another entry.
State, in one line, measured HDAC2 activity raw data (signal) of NCCCC[C@@H]1NC(=O)[C@@H]2C[C@@H](O)CN2C(=O)[C@H](CC(N)=O)NC(=O)[C@H](CCCCCS)NC(=O)CNC(=O)[C@H](Cc2c[nH]c3ccccc23)NC(=O)[C@@H](CCCCN)NC(=O)[C@H](CCC(N)=O)NC1=O [des1.1.2, SHA-Asn-Hpr-Lys-Gln-dLys-Trp-Gly] (HELM PEPTIDE1{G.[O=C([C@H](CCCCCS)N[*:1])[*:2]].N.[Hyp].K.Q.[dK].W}$PEPTIDE1,PEPTIDE1,1:R1-8:R2$$$V2.0)
1067045

====

- Measurement target: HDAC2 (Homo sapiens)
- Construct: purchased Reaction Biology Corporation (assay run by the CRO)
- Method: HDAC2 inhibition, full IC50 measurement (Reaction Biology; fluorogenic p53 peptide RHKK(Ac)AMC)
- Type: biochemical
- Run parameters: Conc. 1.52E-09 M, t2
Peptide text beside a SMILES is read from it.
Experimental endpoint: HDAC2 activity raw data (signal)
Answers are plain numbers.

Record excerpt, results attached:
Compound	HDAC2 activity raw data (signal)
NCCCC[C@@H]1NC(=O)[C@@H]2CCCN2C(=O)[C@H](CC(N)=O)NC(=O)[C@H](CCCCCS)NC(=O)CNC(=O)[C@H](Cc2c[nH]c3ccccc23)NC(=O)[C@@H](CCCCN)NC(=O)[C@H](CCC(N)=O)NC1=O [des1.1.0, SHA-Asn-Pro-Lys-Gln-dLys-Trp-Gly] (HELM PEPTIDE1{G.[O=C([C@H](CCCCCS)N[*:1])[*:2]].N.P.K.Q.[dK].W}$PEPTIDE1,PEPTIDE1,1:R1-8:R2$$$V2.0)	1105020
CCCC[C@H]1NC(=O)[C@H](CC(=O)O)NC(=O)[C@@H](CO)NC(=O)[C@@H](C)NC(=O)[C@H](CCCCN)NC(=O)[C@@H](CCCCN)NC(=O)[C@H](Cc2ccccc2)NC(=O)[C@H](CCCCCS)NC1=O [des4.3.1.2, SHA-Phe-dLys-Lys-dAla-dSer-Asp-dNle] (HELM PEPTIDE1{D.[CCCC[C@@H](N[*:1])C(=O)[*:2]].[O=C([C@H](CCCCCS)N[*:1])[*:2]].F.[dK].K.[dA].[dS]}$PEPTIDE1,PEPTIDE1,1:R1-8:R2$$$V2.0)	1770203
CCCC[C@H]1NC(=O)[C@H](Cc2ccccc2)NC(=O)[C@H](CCCCCS)NC(=O)[C@@H](CCCNC(=N)N)NC(=O)[C@H](C)NC(=O)[C@@H](CO)NC(=O)[C@@H](C)NC(=O)[C@H](CCCCN)NC1=O [des4.3.1.3, SHA-Phe-dNle-Lys-dAla-dSer-Ala-dArg] (HELM PEPTIDE1{A.[dR].[O=C([C@H](CCCCCS)N[*:1])[*:2]].F.[CCCC[C@@H](N[*:1])C(=O)[*:2]].K.[dA].[dS]}$PEPTIDE1,PEPTIDE1,1:R1-8:R2$$$V2.0)	1809308
CCCC[C@H]1NC(=O)[C@H](Cc2ccccc2)NC(=O)[C@H](CCCCCS)NC(=O)[C@@H](CCCNC(=N)N)NC(=O)[C@H](CC(=O)O)NC(=O)[C@@H](CO)NC(=O)[C@@H](C)NC(=O)[C@H](CCCCN)NC1=O [des4.3.1, SHA-Phe-dNle-Lys-dAla-dSer-Asp-dArg] (HELM PEPTIDE1{D.[dR].[O=C([C@H](CCCCCS)N[*:1])[*:2]].F.[CCCC[C@@H](N[*:1])C(=O)[*:2]].K.[dA].[dS]}$PEPTIDE1,PEPTIDE1,1:R1-8:R2$$$V2.0)	1146756
N=C(N)NCCC[C@H]1NC(=O)[C@@H]2CCCN2C(=O)[C@H](CO)NC(=O)[C@@H](Cc2c[nH]cn2)NC(=O)[C@H](CCCCCS)NC(=O)[C@H](CCCCN)NC(=O)[C@H](Cc2ccc(O)cc2)NC(=O)[C@H]2CCCN2C(=O)[C@@H](CCC(N)=O)NC1=O [des3.1.0, SHA-dHis-Ser-Pro-dArg-dGln-dPro-Tyr-Lys] (HELM PEPTIDE1{K.[O=C([C@H](CCCCCS)N[*:1])[*:2]].[dH].S.P.[dR].[dQ].[dP].Y}$PEPTIDE1,PEPTIDE1,1:R1-9:R2$$$V2.0)	821627

Value sought for every listed compound: HDAC2 activity raw data (signal).
1. CCCC[C@H]1NC(=O)[C@H](Cc2ccccc2)NC(=O)[C@H](CCCCCS)NC(=O)[C@@H](CO)NC(=O)[C@H](CC(=O)O)NC(=O)[C@@H](CO)NC(=O)[C@@H](C)NC(=O)[C@H](CCCCN)NC1=O [des4.3.1.1, SHA-Phe-dNle-Lys-dAla-dSer-Asp-dSer] (HELM PEPTIDE1{D.[dS].[O=C([C@H](CCCCCS)N[*:1])[*:2]].F.[CCCC[C@@H](N[*:1])C(=O)[*:2]].K.[dA].[dS]}$PEPTIDE1,PEPTIDE1,1:R1-8:R2$$$V2.0)
2. CC(C)[C@@H]1NC(=O)[C@H](CCCNC(=N)N)NC(=O)[C@@H](CC(=O)O)NC(=O)[C@H](CO)NC(=O)[C@@H](CO)NC(=O)[C@@H](CCC(=O)O)NC(=O)[C@H](Cc2ccc(O)cc2)NC(=O)[C@H](CCCCCS)NC1=O [des4.2.0, SHA-Tyr-dGlu-dSer-Ser-dAsp-Arg-Val] (HELM PEPTIDE1{R.V.[O=C([C@H](CCCCCS)N[*:1])[*:2]].Y.[dE].[dS].S.[dD]}$PEPTIDE1,PEPTIDE1,1:R1-8:R2$$$V2.0)
3. CC(C)C[C@H]1NC(=O)[C@H](Cc2c[nH]c3ccccc23)NC(=O)[C@H](CCCCCS)NC(=O)[C@@H](Cc2ccc(O)cc2)NC(=O)[C@@H](C(C)C)NC(=O)[C@H](Cc2c[nH]cn2)NC(=O)CNC(=O)CNC(=O)[C@@H](CO)NC1=O [des2.2.0, SHA-Trp-dLeu-dSer-Gly-Gly-His-dVal-dTyr] (HELM PEPTIDE1{G.G.H.[dV].[dY].[O=C([C@H](CCCCCS)N[*:1])[*:2]].W.[dL].[dS]}$PEPTIDE1,PEPTIDE1,1:R1-9:R2$$$V2.0)
4. CSCC[C@H]1NC(=O)[C@@H](CO)NC(=O)[C@H](CC(N)=O)NC(=O)[C@H](CC(=O)O)NC(=O)[C@@H]([C@H](C)O)NC(=O)[C@H](Cc2c[nH]c3ccccc23)NC(=O)[C@H](CCCCCS)NC(=O)[C@H](CCCCN)NC(=O)[C@@H](CC(=O)O)NC1=O [des2.1.1, SHA-Trp-dThr-Asp-Asn-dSer-dMet-dAsp-Lys] (HELM PEPTIDE1{D.N.[dS].[dM].[dD].K.[O=C([C@H](CCCCCS)N[*:1])[*:2]].W.[dT]}$PEPTIDE1,PEPTIDE1,1:R1-9:R2$$$V2.0)
5. C[C@H](O)[C@H]1NC(=O)[C@H](Cc2c[nH]c3ccccc23)NC(=O)[C@H](CCCCCS)NC(=O)[C@H](CCCCN)NC(=O)[C@@H](CC(=O)O)NC(=O)[C@@H](CCCCN)NC(=O)[C@@H](CO)NC(=O)[C@H](CC(N)=O)NC(=O)[C@H](CC(=O)O)NC1=O [des2.1.0, SHA-Trp-dThr-Asp-Asn-dSer-dLys-dAsp-Lys] (HELM PEPTIDE1{D.N.[dS].[dK].[dD].K.[O=C([C@H](CCCCCS)N[*:1])[*:2]].W.[dT]}$PEPTIDE1,PEPTIDE1,1:R1-9:R2$$$V2.0)

1. 1860263
2. 1745453
3. 656599
4. 886346
5. 951179

Provenance of the data: paper PMC8185074
